SUBJECT OF TEST: hD3R (Homo sapiens)
Sequence (P35462 whole entry): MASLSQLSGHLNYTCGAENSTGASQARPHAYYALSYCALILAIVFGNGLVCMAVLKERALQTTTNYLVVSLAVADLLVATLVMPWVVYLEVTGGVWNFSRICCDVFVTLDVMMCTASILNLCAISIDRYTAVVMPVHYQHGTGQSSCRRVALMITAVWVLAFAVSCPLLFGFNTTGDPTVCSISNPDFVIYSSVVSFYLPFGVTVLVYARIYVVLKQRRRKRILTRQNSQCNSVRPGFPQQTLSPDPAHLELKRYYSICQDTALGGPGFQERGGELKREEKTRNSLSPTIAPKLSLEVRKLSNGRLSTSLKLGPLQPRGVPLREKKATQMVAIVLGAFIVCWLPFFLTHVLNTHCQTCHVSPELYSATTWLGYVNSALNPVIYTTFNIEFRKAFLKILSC
MEASUREMENT DESCRIPTION: biochemical
Assay type: binding
EXPERIMENTAL CONTEXT: Ki hD3, three experiments, means ± SEM
Below, each entry is listed alongside its reported pKi.
Units for pKi: none; it is -log10 of a concentration expressed in mol/L.

These recorded examples may help you get a feel for the data.
CCCN(CCCCNC(=O)c1cc2ccccc2[nH]1)Cc1ccc2c(c1)c1ccccc1n2CC [31c]
6.35
Cn1c2c(c3ccccc31)CN(CCCCNC(=O)c1cc3ccccc3[nH]1)CC2 [36a]
7.97
CCn1c2c(c3ccccc31)CCN(CCCCNC(=O)c1cc3ccccc3[nH]1)C2 [42b]
7.89
CCn1c2c(c3ccccc31)CCN(CCCCNC(=O)c1ccc3nc[nH]c3c1)C2 [42f]
6.52
Cn1c2c(c3ccccc31)CN(CCCCNC(=O)c1ccc3[nH]c(=O)[nH]c3c1)CC2 [36i]
8.43

Exercise: I have this compound here, CCn1c2ccccc2c2cc(CNCCCCNC(=O)c3ccc(-c4ccccc4)cc3)ccc21 [23g] , and I need its recorded pKi.
Solution: 6.69

Exercise: Next entry: CCn1c2ccccc2c2cc(CNCCCCNC(=O)c3ccc4[nH]c(=O)[nH]c4c3)ccc21 [23e]
Solution: 7.00

Exercise: Next entry: CCn1c2ccccc2c2cc(CNCCCCNC(=O)c3cnc4ccccc4c3)ccc21 [23l]
Solution: 7.07

Exercise: Next entry: Cn1c2c(c3ccccc31)CCN(CCCCNC(=O)c1ccc3[nH]c(=O)[nH]c3c1)C2 [42i]
Solution: 6.95
